molecular target: Protein farnesyltransferase subunit beta/geranylgeranyltransferase type-1 subunit alpha (Bos taurus, UniProt P29702+P49355); experiment: FTase Activity Assay; conditions: pH 7.5; 37 °C
quantity.name: IC50

CN(Cc1ccc(C#N)cc1)[C@H](Cc1cncn1C)C(=O)N1CCC(C#N)=C(c2cccc3ccccc23)C1; 0.92 nM

====

target: Geranylgeranyl transferase type-1 subunit beta/Protein farnesyltransferase/geranylgeranyltransferase type-1 subunit alpha (Bos taurus, UniProt P29702+Q5EAD5); experiment: GGTase-I Activity Assay; settings: pH 7.5; 37 °C
pIC50: −log10 of the molar value.
quantity.name: pIC50

CN(Cc1ccc(C#N)cc1)[C@H](Cc1cncn1C)C(=O)N1CCC(C#N)=C(c2cccc3ccccc23)C1; 5.80
